- Assay explanation: yeast display, Sf9 membrane polyspecificity reagent, FACS + sequencing; frameworks hold sequencing errors

Seq | polyreactivity (PSR sort gate)
QVQLVESGGGLVQAGGSLRLICAASGRIFVKYAIGWYRQAPGKERELVASITSGGRTNYADSVKGRFTISPDIAKNTVYLQMNSLKPEDTAVYYCAAVWRTASTQYYYWGQGTQVTVSS | high polyreactivity
QVQLEESGGGLVQAGGSLRLSCAASGRIFATNAMGWYRQAPGKERELVATITRSAGRTYYADSVKGRFTISRDNAKNTVYLHMNSLKPEDTAVYYCASSYWDTEPVYREYDYWGQGTQVTVSS | low polyreactivity
QVQLVESGGGLVQAGGSLRLSCAASGITFDANTMGWYRQAPGKERELVAVITDTGSTNYADSVKGRFTISRDNAKNTVYLQMNSLKPEDTAVYYCNADAEPSSGTSANNDYWGQGTQVTVSS | low polyreactivity
QVQLVESVGGLVQAGGSLRLSCAASGSTLSAYVMGWYRQAPGKERELVAAITRGGNTYYADSVKGRFTISRDNAKNTVYLQMNSLKPEDTAVYYCAARTYVSYCYYTLNYWGQGTQVTVSS | high polyreactivity
QVQLVESGGGLVQAGGSLRLSCAASGIIFRFNGMGWYRQAPGKEREFVAAISGGAGSTYYADSVKGRFTISRDNAKNTVYLQMNSLKPEDTAVYYCAAVWRTRWASGYYWGQGTQVTVSS | high polyreactivity
QVQLVESGVGLVQAGGSLGLTCAASGSIFYRYTMGWYREAPGKERELVAAISSDGDSTYYADSVKGRFTISRDNAKNTVYLQMNSLKPEDTAVYYCAADLEPYIGYHFYYWGQGTQVTVSS | low polyreactivity
QVQLVESGGGLVQAGGSLRLSCAASGSIFSGYVMGWYRQSPGKESELDAAISYSGGSKYYADSVKGRFTISRDNAKNTVYLQMNSLKPEDTAVYFCAAPGWLSQPRYRGYDYWGQGTQVSVSS | high polyreactivity
QVQLVESGGGLVQAGGSLRLSCAASGSTFYLYAKGWYRQAPGKEREMVAAITGSGSRTYYADSVKGRFTISRDNAKNTVYLQMHSLNPEDTAVYYCAAKYGWQGGRGRDYWGQGTQVTVSS | high polyreactivity
QVQLVESGGGLVQAGGSLRLSCAASGRTIKYYAMGWYRQAPGKERELVAVITYGGSTDYADSVKGRFTISRDNAKNTVYLQLNSLKPEDTAVYYCAAGFGRHYWGYDSWGQGTQVTVSS | low polyreactivity
QVQLVESGGGLVQAGGSLRLSCAASGFIFGINAMGWYRQAPGKERELVATITSGGGTNYADSVKGRFTISRDNAKNTVYLQMNSLKPEDTAVYYCAKAPDTQTSWSRQEGNYWGQGTQVTVSS | low polyreactivity
QVQLVESGGGLVQAGGILRLSCAASGITFRYYAMGWYRQAPGKERELVAAITGNGGGTYADSVKGRFTISRDTAKYTGYLQMNSLKPEVTAVNYCSADYGRRWGYDYWGQGTQVTVSS | low polyreactivity

Values were extracted from the nanobody polyreactivity screen of Harvey et al. (2022).
